These compounds were tested on A. baumannii AB19606; MIC is the recorded read-out.

| COMPOUND | TARGET OR TEST SYSTEM | MIC |
| --- | --- | --- |
| Nc1nc(-c2ccc3nc(-c4cccc(Cl)c4)[nH]c3c2)c[nH]1 [Compound 8] | A. baumannii AB19606 | ≥ 200 µM |
| Nc1nc(-c2ccc3nc(-c4ccc(Cl)cc4Cl)[nH]c3c2)c[nH]1 [Compound 11] | A. baumannii AB19606 | ≥ 200 µM |
| Cc1ccc(-c2nc3ccc(-c4c[nH]c(N)n4)cc3[nH]2)cc1C [Compound 17] | A. baumannii AB19606 | ≥ 200 µM |
| Nc1nc(-c2ccc3nc(-c4ccc(Cl)cc4)[nH]c3c2)c[nH]1 [Compound 7] | A. baumannii AB19606 | ≥ 200 µM |
| Nc1nc(-c2ccc3nc(-c4cc(Cl)c(Cl)c(Cl)c4)[nH]c3c2)c[nH]1 [Compound 6] | A. baumannii AB19606 | ≥ 200 µM |
| Nc1nc(-c2ccc3nc(-c4cccc(Cl)c4Cl)[nH]c3c2)c[nH]1 [Compound 10] | A. baumannii AB19606 | ≥ 200 µM |
| Nc1nc(-c2ccc3nc(-c4cc(Cl)ccc4Cl)[nH]c3c2)c[nH]1 [Compound 12] | A. baumannii AB19606 | ≥ 200 µM |
| Cc1cc(C)cc(-c2nc3ccc(-c4c[nH]c(N)n4)cc3[nH]2)c1 [Compound 16] | A. baumannii AB19606 | ≥ 200 µM |
| Nc1nc(-c2ccc3nc(-c4ccccc4Cl)[nH]c3c2)c[nH]1 [Compound 9] | A. baumannii AB19606 | ≥ 200 µM |
